What pKi was measured for each of the following?
- tested.system: MMP-2 (Homo sapiens)
- Construct: made in house; host or cells: MMP-2-transfected p2AHT2 cells
- Sequence (P08253 110-660, species assumed): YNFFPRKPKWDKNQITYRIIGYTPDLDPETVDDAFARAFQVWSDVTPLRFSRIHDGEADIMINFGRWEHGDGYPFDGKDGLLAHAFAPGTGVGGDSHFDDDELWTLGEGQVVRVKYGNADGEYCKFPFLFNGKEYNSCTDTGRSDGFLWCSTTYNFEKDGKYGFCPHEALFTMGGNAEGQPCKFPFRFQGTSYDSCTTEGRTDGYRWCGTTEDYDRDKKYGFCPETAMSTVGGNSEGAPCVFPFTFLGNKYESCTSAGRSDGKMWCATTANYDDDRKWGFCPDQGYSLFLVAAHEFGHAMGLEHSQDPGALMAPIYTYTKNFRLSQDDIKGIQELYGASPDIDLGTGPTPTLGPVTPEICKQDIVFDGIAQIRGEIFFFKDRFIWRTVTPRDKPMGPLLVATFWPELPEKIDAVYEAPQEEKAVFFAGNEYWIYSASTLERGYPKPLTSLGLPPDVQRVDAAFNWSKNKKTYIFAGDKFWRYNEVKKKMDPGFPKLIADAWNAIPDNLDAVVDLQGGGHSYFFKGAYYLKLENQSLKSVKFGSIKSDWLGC
- experiment: MMP-2 inhibition (in vitro Ki)
- Assay type: biochemical
- assay.conditions: Table 9; read-out: MMP-2 Ki (IC-50)
Please express pKi as -log10 of the molar concentration.

[ask] Kindly indicate its recorded pKi. Item: `O=C(NO)C1(S(=O)(=O)N2CCC(c3ccc(-n4ccnc4)cn3)CC2)CCOCC1`
[reply] 8.12

[ask] Kindly indicate its recorded pKi. Item: `CCCC(F)(F)c1ccc(C2CCN(S(=O)(=O)C3(C(=O)NO)CCOCC3)CC2)nc1`
[reply] 8.50

[ask] Kindly indicate its recorded pKi. Item: `CN(C(=O)CCCCC1CCN(S(=O)(=O)C2(C(=O)NO)CCOCC2)CC1)c1ccccc1`
[reply] 6.71

[ask] Kindly indicate its recorded pKi. Item: `CC(C)CCc1cnc(C2CCN(S(=O)(=O)C3(C(=O)NO)CCOCC3)CC2)cn1`
[reply] 8.00

----------
- tested.system: MMP-13 (Homo sapiens)
- Construct: made in house; host or cells: baculovirus / insect cells
- experiment: MMP-13 inhibition (in vitro Ki)
- Format: biochemical
- assay.conditions: Table 9; read-out: MMP-13 Ki (IC-50)
What Ki was measured for each of the following?
State the answer as a number, implicitly in nM.

[ask] Report Ki from MMP-13 (Homo sapiens) testing of `O=C(NO)C1(S(=O)(=O)N2CCN(c3ccc(-c4ccsc4)c(F)c3)CC2)CCOCC1`
[reply] 0.93

[ask] Report Ki from MMP-13 (Homo sapiens) testing of `O=C(CCCCC1CCN(S(=O)(=O)C2(C(=O)NO)CCOCC2)CC1)N1CCCCC1`
[reply] 2.01

[ask] Report Ki from MMP-13 (Homo sapiens) testing of `CC1(C)O[C@H]2C[C@@](C(=O)NO)(S(=O)(=O)N3CCC(c4ccc(CCC(F)(F)C(F)(F)F)cn4)CC3)C[C@H]2O1`
[reply] 0.09

[ask] Report Ki from MMP-13 (Homo sapiens) testing of `CCCC(=O)c1ccc(C2CCN(S(=O)(=O)C3(C(=O)NO)CCOCC3)CC2)nc1`
[reply] 1.91

[ask] Report Ki from MMP-13 (Homo sapiens) testing of `CC(C)CCc1cnc(C2CCN(S(=O)(=O)C3(C(=O)NO)CCOCC3)CC2)cn1`
[reply] 2.8

[ask] Report Ki from MMP-13 (Homo sapiens) testing of O=C(CCCCC1CCN(S(=O)(=O)C2(C(=O)NO)CCOCC2)CC1)N1CC2CCCCC2C1 (stereo not shown)
[reply] 2.01

[ask] Report Ki from MMP-13 (Homo sapiens) testing of `COCCC(CCOC)(C(=O)NO)S(=O)(=O)N1CCC(c2ccc(CCC(F)(F)C(F)(F)F)cn2)CC1`
[reply] 0.85

----------
- tested.system: MMP-2 (Homo sapiens)
- Construct: made in house; host or cells: MMP-2-transfected p2AHT2 cells
- experiment: MMP-2 inhibition (in vitro Ki)
- Format: biochemical
- assay.conditions: Table 10; read-out: MMP-2 Ki
What pKi was measured for each of the following?
Please express pKi as -log10 of the molar concentration.

[ask] Report pKi from MMP-2 (Homo sapiens) testing of `CCC(CC)(C(=O)NO)S(=O)(=O)N1CCC(Oc2ccc(SC(F)(F)F)cc2)CC1`
[reply] 8.92

[ask] Report pKi from MMP-2 (Homo sapiens) testing of COCCC(C(=O)NO)S(=O)(=O)N1CCC(Oc2ccc(SC(F)(F)F)cc2)CC1 (stereo not shown)
[reply] 9.10

[ask] Report pKi from MMP-2 (Homo sapiens) testing of `O=C(CCCCC1CCN(S(=O)(=O)C2(C(=O)NO)CCOCC2)CC1)N1CCc2ccccc21`
[reply] 7.51

[ask] Report pKi from MMP-2 (Homo sapiens) testing of `COCCC(CCOC)(C(=O)NO)S(=O)(=O)N1CCC(Oc2ccc(SC(F)(F)F)cc2)CC1`
[reply] 9.18

----------
What Ki was measured for each of the following?
- tested.system: MMP-13 (Homo sapiens, UniProt P45452)
- Construct: made in house; host or cells: baculovirus / insect cells
- experiment: MMP-13 inhibition (in vitro Ki)
- Type: biochemical
- assay.conditions: Table 8; read-out: MMP-13 Ki
Where a name gives a salt, the structure may show the parent alone.
The reply must contain the numeric value and, after it, the unit.

[ask] Kindly indicate its recorded Ki. Item: O=C(NO)C1(S(=O)(=O)N2CCC(c3ccc(CCC(F)(F)C(F)(F)F)cn3)CC2)CCCCC1 [Example A56, Hydrochloride]
[reply] 140 pM

[ask] Kindly indicate its recorded Ki. Item: `O=C(NO)C1(S(=O)(=O)N2CCC(CCCCCCCC(F)(F)F)CC2)CCOCC1`
[reply] 230 pM

[ask] Kindly indicate its recorded Ki. Item: CCCCOCCOC1CCN(S(=O)(=O)C2(C(=O)NO)CCOCC2)CC1 [Example A36H]
[reply] 70500 pM

[ask] Kindly indicate its recorded Ki. Item: CCCCC=CCCOC1CCN(S(=O)(=O)C2(C(=O)NO)CCOCC2)CC1 [Example A36C]
[reply] 1220 pM

----------
- tested.system: MMP-1 (Homo sapiens)
- Construct: made in house; host or cells: MMP-1-transfected HT-1080 cells (spent media)
- Sequence (P03956 100-469): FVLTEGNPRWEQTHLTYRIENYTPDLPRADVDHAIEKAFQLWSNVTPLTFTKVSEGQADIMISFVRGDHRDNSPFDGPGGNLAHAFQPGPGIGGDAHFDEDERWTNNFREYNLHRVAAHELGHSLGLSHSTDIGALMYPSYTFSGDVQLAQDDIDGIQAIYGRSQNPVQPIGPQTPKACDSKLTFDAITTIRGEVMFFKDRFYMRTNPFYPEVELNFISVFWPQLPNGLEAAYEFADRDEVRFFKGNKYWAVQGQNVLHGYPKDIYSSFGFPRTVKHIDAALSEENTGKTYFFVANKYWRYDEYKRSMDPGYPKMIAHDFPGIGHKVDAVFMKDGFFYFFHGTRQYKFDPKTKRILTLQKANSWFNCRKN
- experiment: In vitro MMP inhibition, Ki determination (fluorogenic substrate II)
- Type: biochemical
- assay.conditions: value outside parentheses; read-out: MMP-1 Ki
pKi: −log10 of the molar value.
What pKi was measured for each of the following?

[ask] Kindly indicate its recorded pKi. Item: `CCCCOc1ccc(N2CCN(S(=O)(=O)C3(C(=O)NO)CCN(C(=O)CCCC)CC3)CC2)cc1`
[reply] < 5.00

[ask] Kindly indicate its recorded pKi. Item: `N#Cc1cccc(-c2cnc(N3CCN(S(=O)(=O)C4(C(=O)NO)CCOCC4)CC3)s2)c1`
[reply] 6.58

[ask] Kindly indicate its recorded pKi. Item: `O=C(NO)C1(S(=O)(=O)N2CCC(COCC(F)(F)C(F)F)CC2)CCOCC1`
[reply] < 5.00

[ask] Kindly indicate its recorded pKi. Item: `CC(C)CCOc1ccc(N2CCN(S(=O)(=O)C3(C(=O)NO)CCOCC3)CC2)cc1`
[reply] < 5.00

[ask] Kindly indicate its recorded pKi. Item: CCCCc1ccc(C2CCN(S(=O)(=O)C3(C(=O)NO)CCOCC3)CC2)nc1 [Example 323]
[reply] 5.21

[ask] Kindly indicate its recorded pKi. Item: `O=C(NO)C1(S(=O)(=O)N2CCC(COCc3ccc(C(F)(F)F)cc3)CC2)CCOCC1`
[reply] < 5.00

[ask] Kindly indicate its recorded pKi. Item: `CCCCc1ccc(C2CCN(S(=O)(=O)C3(C(=O)NO)CCN(CCOC)CC3)CC2)nc1`
[reply] < 5.00

[ask] Kindly indicate its recorded pKi. Item: `O=C(NO)C1(S(=O)(=O)N2CCC(COCc3ccccc3)CC2)CCOCC1`
[reply] < 5.00

----------
- tested.system: MMP-1 (Homo sapiens, UniProt P03956)
- Construct: made in house; host or cells: MMP-1-transfected HT-1080 cells (spent media)
- Sequence (P03956 100-469): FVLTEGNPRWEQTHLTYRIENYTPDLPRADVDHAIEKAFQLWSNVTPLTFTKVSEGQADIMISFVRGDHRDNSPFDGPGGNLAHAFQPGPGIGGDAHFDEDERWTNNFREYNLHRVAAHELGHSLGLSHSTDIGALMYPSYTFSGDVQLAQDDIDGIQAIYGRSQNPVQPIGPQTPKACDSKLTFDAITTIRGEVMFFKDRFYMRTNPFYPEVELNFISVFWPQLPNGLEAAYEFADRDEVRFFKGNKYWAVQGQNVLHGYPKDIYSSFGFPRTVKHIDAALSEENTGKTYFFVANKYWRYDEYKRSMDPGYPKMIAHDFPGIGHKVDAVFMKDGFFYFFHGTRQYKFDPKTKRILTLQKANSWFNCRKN
- experiment: MMP-1 inhibition (in vitro Ki)
- Type: biochemical
- assay.conditions: Table 9; read-out: MMP-1 Ki (IC-50)
What pKi was measured for each of the following?
Please express pKi as -log10 of the molar concentration.

[ask] Report pKi from MMP-1 (Homo sapiens, UniProt P03956) testing of O=C(CCCCC1CCN(S(=O)(=O)C2(C(=O)NO)CCOCC2)CC1)N1Cc2ccccc2C1 [Example A87]
[reply] 6.03

[ask] Report pKi from MMP-1 (Homo sapiens, UniProt P03956) testing of O=C(NO)C1(S(=O)(=O)N2CCC(CCc3ccccc3)CC2)CCOCC1 [Example A185]
[reply] 5.76

[ask] Report pKi from MMP-1 (Homo sapiens, UniProt P03956) testing of O=C(/C=C/C=C/C1CCN(S(=O)(=O)C2(C(=O)NO)CCOCC2)CC1)N1CCCCC1 [Example A78]
[reply] 5.62

[ask] Report pKi from MMP-1 (Homo sapiens, UniProt P03956) testing of O=C(NO)C1(S(=O)(=O)N2CCN(c3ccc(-c4nnn(CC(F)(F)F)n4)cc3)CC2)CCOCC1 [Example A199]
[reply] 6.54

[ask] Report pKi from MMP-1 (Homo sapiens, UniProt P03956) testing of O=C(NO)C1(S(=O)(=O)N2CCC(c3ccc(C#CCCO)cn3)CC2)CCOCC1 [Example A133]
[reply] 5.72
